# System Tested: UniProtKB Q9BQF6
# Sequence (Q9BQF6 whole entry): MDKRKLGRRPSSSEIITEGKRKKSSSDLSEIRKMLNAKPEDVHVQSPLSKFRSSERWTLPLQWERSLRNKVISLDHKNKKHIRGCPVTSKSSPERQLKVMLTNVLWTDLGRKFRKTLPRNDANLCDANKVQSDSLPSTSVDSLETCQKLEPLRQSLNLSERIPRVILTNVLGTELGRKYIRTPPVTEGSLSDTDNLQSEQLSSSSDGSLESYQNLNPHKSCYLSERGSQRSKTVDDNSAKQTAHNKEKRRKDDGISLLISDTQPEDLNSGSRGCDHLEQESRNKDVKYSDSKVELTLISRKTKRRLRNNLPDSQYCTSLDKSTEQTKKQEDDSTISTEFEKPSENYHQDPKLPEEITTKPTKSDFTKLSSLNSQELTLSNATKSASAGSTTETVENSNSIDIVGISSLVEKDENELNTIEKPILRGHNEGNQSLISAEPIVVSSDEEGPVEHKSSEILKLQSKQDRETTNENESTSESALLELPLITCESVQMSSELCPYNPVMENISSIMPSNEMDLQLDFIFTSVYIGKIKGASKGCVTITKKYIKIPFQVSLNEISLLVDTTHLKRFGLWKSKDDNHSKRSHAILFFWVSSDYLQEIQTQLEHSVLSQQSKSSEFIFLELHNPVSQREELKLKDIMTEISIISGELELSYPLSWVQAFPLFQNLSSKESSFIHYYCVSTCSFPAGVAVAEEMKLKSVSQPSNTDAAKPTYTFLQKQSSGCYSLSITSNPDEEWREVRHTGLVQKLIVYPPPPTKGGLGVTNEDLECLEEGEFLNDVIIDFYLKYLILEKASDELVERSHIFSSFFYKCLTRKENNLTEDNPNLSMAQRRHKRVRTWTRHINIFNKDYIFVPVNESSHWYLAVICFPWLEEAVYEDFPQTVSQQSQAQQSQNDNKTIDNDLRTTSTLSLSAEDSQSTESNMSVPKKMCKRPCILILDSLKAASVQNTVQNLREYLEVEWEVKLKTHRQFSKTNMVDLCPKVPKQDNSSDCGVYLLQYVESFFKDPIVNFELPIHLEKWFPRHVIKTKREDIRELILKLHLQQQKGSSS
# Format: functional
The source made the active and inactive calls.
Readout Type: IC50

Mol	Readout Type	Result
COc1ccc(-c2cc(-c3cc(C)ccc3O)n[nH]2)cc1	IC50	4.46 µM (active)
O=C(O/N=C1\CCCc2ccccc21)c1ccc(F)cc1	IC50	2.15 µM (active)
Cc1cc(C)nc(NC(=O)/C=C/c2ccc(Cl)cc2Cl)c1	IC50	3.39 µM (active)
O=c1oc(-c2ccco2)nc2sc3c(c12)CCCC3	IC50	5.4 µM (active)

---

// reported IC50 for each item listed
# System Tested: UniProt:Q2TB90
# Sequence (Q2TB90 whole entry): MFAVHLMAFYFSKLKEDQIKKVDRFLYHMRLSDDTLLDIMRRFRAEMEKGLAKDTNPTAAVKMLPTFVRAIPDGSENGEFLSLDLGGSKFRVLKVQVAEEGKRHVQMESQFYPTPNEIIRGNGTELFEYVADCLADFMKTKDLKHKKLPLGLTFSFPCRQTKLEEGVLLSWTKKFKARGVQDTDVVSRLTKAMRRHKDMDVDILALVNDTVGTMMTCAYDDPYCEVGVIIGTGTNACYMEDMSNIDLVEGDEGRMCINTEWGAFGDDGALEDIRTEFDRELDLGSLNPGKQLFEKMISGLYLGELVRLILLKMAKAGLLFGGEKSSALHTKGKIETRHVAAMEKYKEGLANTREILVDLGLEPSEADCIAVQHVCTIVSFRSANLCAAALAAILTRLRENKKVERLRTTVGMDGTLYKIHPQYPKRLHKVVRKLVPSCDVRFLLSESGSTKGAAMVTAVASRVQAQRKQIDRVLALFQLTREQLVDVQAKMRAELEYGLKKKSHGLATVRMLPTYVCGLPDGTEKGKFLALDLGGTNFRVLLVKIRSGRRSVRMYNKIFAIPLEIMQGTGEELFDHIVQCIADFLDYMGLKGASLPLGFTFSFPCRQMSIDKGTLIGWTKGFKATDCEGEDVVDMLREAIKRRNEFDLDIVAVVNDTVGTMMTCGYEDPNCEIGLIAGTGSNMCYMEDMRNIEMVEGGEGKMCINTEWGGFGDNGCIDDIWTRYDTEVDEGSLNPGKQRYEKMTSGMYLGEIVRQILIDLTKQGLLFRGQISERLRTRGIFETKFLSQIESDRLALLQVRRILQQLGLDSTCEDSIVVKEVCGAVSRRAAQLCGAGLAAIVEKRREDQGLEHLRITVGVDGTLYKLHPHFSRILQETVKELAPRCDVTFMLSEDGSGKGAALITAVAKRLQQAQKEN
# Test: HKDC1 hexokinase inhibitors, dose response, biochemical, W721R variant (AID 504729)
# Assay type: functional
Active and inactive are the calls of the source.

Compound	IC50
COc1cc(C2c3c([nH]c(=O)[nH]c3=O)Nc3ccc4ccccc4c32)cc(OC)c1OC (stereo not drawn)	15.2 µM (active)
Cc1oc2c(c1C(=O)c1ccccc1)C(=O)C(=O)c1ccccc1-2	14.5 µM (active)
Cc1ccc(S(=O)(=O)Nc2c(O)ccc3ccccc23)cc1	16.1 µM (active)

---

// reported EC50 for each item listed
# System Tested: Short transient receptor potential channel 4 (Mus musculus)
# Sequence (Q9QUQ5 whole entry): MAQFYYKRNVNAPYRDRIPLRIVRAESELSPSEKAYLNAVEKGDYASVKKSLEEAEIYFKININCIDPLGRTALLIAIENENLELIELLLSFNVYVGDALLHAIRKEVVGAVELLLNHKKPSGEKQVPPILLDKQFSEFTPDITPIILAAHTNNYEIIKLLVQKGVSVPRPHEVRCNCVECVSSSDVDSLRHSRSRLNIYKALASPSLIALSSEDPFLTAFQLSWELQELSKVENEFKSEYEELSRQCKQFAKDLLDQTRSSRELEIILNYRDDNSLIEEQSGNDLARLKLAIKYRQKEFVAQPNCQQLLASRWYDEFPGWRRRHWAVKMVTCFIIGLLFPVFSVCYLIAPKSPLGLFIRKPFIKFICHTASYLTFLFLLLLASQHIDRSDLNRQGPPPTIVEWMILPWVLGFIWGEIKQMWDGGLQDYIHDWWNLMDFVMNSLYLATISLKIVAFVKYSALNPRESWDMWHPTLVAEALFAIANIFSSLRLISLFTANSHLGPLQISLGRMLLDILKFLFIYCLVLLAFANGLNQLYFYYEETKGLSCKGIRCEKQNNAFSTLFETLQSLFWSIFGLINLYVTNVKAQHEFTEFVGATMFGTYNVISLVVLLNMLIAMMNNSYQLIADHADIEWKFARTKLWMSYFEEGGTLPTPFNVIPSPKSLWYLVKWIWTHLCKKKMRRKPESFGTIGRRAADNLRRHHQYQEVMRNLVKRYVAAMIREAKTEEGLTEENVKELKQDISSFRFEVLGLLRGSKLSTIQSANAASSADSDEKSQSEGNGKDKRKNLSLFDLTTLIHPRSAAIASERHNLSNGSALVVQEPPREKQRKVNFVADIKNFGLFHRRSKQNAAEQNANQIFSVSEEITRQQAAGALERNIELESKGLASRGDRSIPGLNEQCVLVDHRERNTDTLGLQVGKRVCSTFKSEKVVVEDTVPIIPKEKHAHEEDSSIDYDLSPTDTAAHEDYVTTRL
# Test: mouse TRPC4 channel activators, dose response, cell-based, HEK293 TRPC4/mu-opioid, Fluo-4 calcium (AID 434937)
# Type: functional
Active and inactive are the calls of the source.
Readout Type: EC50

Compound	Result
O=C(NC(=S)NNC(=O)c1ccccc1[N+](=O)[O-])c1ccc(Br)cc1	11.9 µM (active)
Cc1noc(C)c1S(=O)(=O)N1CCC(C(=O)NCCCN2CC(C)CC(C)C2)CC1 (configuration not stated)	0.473 µM (active)
CCOc1ncccc1C(=O)NCC(c1ccccc1)N(C)C (configuration not stated)	1.19 µM (active)
CCOC(=O)C1(CC2CC2)CCN(Cc2ccc(O)c(Cl)c2)CC1	0.841 µM (active)
O=c1c2c(-c3ccccc3)csc2ncn1/N=C/c1cccc([N+](=O)[O-])c1O	9.44 µM (active)
CCN1/C(=C/c2ccc3cc(C)ccc3[n+]2CC)Sc2cc(C)c(C)cc21	11.9 µM (active)
Cn1c2ccccc2c(=O)c2c(=O)n(C3CCCCC3)c(-c3ccco3)nc21	4.73 µM (active)

---

// reported AC50 for each item listed
# System Tested: Cytochrome P450 2C9 (Homo sapiens, UniProt P11712)
# Sequence (P11712 whole entry): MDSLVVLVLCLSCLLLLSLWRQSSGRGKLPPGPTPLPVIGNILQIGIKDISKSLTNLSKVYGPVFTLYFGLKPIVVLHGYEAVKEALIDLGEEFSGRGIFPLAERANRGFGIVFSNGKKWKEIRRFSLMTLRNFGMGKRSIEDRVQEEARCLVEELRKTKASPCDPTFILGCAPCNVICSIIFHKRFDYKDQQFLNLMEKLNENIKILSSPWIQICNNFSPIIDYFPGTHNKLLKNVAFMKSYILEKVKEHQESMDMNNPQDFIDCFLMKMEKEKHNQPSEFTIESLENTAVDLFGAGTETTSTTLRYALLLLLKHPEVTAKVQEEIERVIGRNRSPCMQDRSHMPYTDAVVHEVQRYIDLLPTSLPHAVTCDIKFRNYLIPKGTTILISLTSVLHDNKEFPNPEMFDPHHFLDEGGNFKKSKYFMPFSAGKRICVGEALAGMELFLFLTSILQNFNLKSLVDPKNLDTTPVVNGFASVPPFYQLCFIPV
Readout Type: AC50

Compound	System Tested	Result
CCCCCCN(CCCCCC)C(=O)Cc1c(-c2ccc(F)cc2)[nH]c2ccccc12	Cytochrome P450 2C9 (Homo sapiens, UniProt P11712)	5.01 µM (inconclusive)
CN1C(=O)C(CC(=O)Nc2ccc(F)cc2)N(CCCc2ccccc2)C1=S (stereo not drawn)	Cytochrome P450 2C9 (Homo sapiens, UniProt P11712)	2.82 µM (inconclusive)
CCCCCCCCCCCCCCCCCCNC(=O)OC[C@@H](COP(=O)([O-])OCC[n+]1ccsc1)OC	Cytochrome P450 2C9 (Homo sapiens, UniProt P11712)	39.8 µM (inconclusive)

---

// reported IC50 for each item listed
# System Tested: Caspase-3 (Homo sapiens, UniProt P42574);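 also: Dose-response selectivity test against caspase-3 for candidate inhibitors of sentrin-specific proteases (SENPs)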
# Format: functional
Calls of active or inactive are those of the source.

Mol	IC50
O=C(Nc1ccc(Cl)cn1)c1ccc(Oc2ccccc2)cc1	5.66 µM (active)
COc1ccc(/N=C(\C)C2=C(O)c3ccccc3C2=O)cc1	4.38 µM (active)
CC(=O)c1c(C)oc2ccc(OCc3ccccc3)cc12	39 µM (active)
O=C(O/N=C1\CCCc2ccccc21)c1ccc(F)cc1	2.23 µM (active)

---

// reported AC50 for each item listed
# Test: control 3'UTR Renilla luciferase suppression, dose response, counter-screen for Shn3 inhibitor project, cell-based, Clone20-Shn3RL, cherry-picked (AID 624133)
# Type: functional
Activity calls are given as the source filed them.
Readout Type: AC50

Compound	Readout Type	Result
O=C(c1cc(COc2cccc3cnccc23)on1)N1CCCC(CCCO)C1 (centres undefined)	AC50	1.14 µM (active)
C[C@@H]1C[C@@H]2O[C@H]2/C=C\C=C\C(=O)Cc2c(Cl)c(O)cc(O)c2C(=O)O1	AC50	12.3 µM (active)
CCCCCn1c(=N)n(CC(O)COc2ccccc2OC)c2ccccc21 (centres undefined)	AC50	23.4 µM (active)
O=C(c1ccc(Cn2c(=S)[nH]c3ccccc3c2=O)cc1)N1CCN(c2ccccn2)CC1	AC50	31.4 µM (active)
CCCCOc1ccc(Br)cc1CSC(=N)N	AC50	2.58 µM (active)
Cc1cc(Nc2cccc(Cl)c2)nc(NCc2ccccc2)n1	AC50	6.41 µM (active)
Cc1cc(C)c2nc(NNC(=O)c3ccc(S(=O)(=O)N4CC(C)CC(C)C4)cc3)sc2c1 (centres undefined)	AC50	2.1 µM (active)
CC(C)c1ccc(NC(=O)Nc2nc(C(N)C3CCCCC3)cs2)cc1 (centres undefined)	AC50	4.41 µM (active)
CC(=O)N1c2ccc(S(=O)(=O)N3CCC(C(=O)N4CCN(c5cc(Cl)ccc5C)CC4)CC3)cc2CC1C (centres undefined)	AC50	6.67 µM (active)

---

# System Tested: Protein RecA (Mycobacterium tuberculosis, UniProt P9WHJ3)
# Test: Fluorescence Cell-Free Homogeneous Dose Retest to Identify Inhibitors of RecA-Intein Splicing Activity. [Related pubchem assays (depositor defined):AID2097, AID2223, AID489010, AID492950]
# Type: functional
Active and inactive are the calls of the source.
Outcome codes: active, inactive

Compound	Answer Label
O=C1c2ccccc2-c2onc3ccc(Oc4ccccc4)c1c23	active
O=C1C(Cl)=C(NCCN2CCCCC2)C(=O)c2ccccc21	active
O=C(CCl)Nc1cccc(-c2cnc3ccccc3n2)c1	active
O=C(Oc1ccc2ccccc2c1)c1ccco1	active
CC(=O)N(c1ccccc1)C(C)c1nc(C#N)c(C#N)nc1C (stereo not given)	active
O=C1CCCC2=C1C1(O)C(=O)c3ccccc3C1(O)O2 (stereo not given)	active
Cc1ccc(CNC(=O)c2ccc(N(C)S(=O)(=O)c3ccccc3)cc2)cc1	inactive
O=C(NNC(=O)c1ccc2ccccc2c1O)c1ccccc1Cl	inactive
Oc1cccc(/C=N/c2cccc3ccccc23)c1O	active

---

// reported EC50 for each item listed
# Test system: H4
# Test: Luminescence Cell-Based Dose Response HTS to Identify Activators of 5'UTR Stem-Loop Driven Prion Protein mRNA Translation in H4 Neuroglioblastoma Cells. [Related pubchem assays: 1829 (Project Summary), 1814 (Primary HTS)]
# Format: functional
# Test Context: Homo sapiens
Activity calls are given as the source filed them.
Readout Type: EC50

Compound	Readout Type	Result
N#Cc1ccc(-c2ccc(Cl)cc2)nc1SCC(=O)c1cccc(Cl)c1	EC50	> 120 µM (not active)
Cc1cccc(OCC2=NS(=O)(=O)c3ccccc3N2)c1	EC50	> 120 µM (not active)
c1ccc2c(-c3nc(-c4ccncc4)no3)cccc2c1	EC50	51.4 µM (active)
CC(C)(C)c1ccc(OCc2ccc(C(=O)NCc3cccnc3)o2)cc1	EC50	> 120 µM (not active)
CC(C)c1ccc(NC(S)=NN2CCOCC2)cc1	EC50	22.2 µM (active)
CCOC(=O)c1c(C)[nH]c(/C=N/c2ccc(OC)cc2)c1O	EC50	4.53 µM (active)
Cc1nc(C(=O)Nc2ccccc2)sc1C1(C)CC(c2cccnc2)=NO1 (centres undefined)	EC50	11.9 µM (active)
O=C(CSC1=NCCS1)Nc1nc2ccccc2s1	EC50	9.16 µM (active)
CC(C)c1cc(C(N)=O)c(NC(=O)c2cccc(COc3ccc(Br)cc3)c2)s1	EC50	0.366 µM (active)
